# ASSAY METHOD TEXT: qHTS assay to identify small molecule antagonists of the estrogen receptor alpha (ER-alpha) signaling pathway - cell viability counter screen (AID 743074);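 also: HEK293 cells carrying ER-alpha-UAS-bla reporter stimulated with 17beta-estradiol; nearly all actives have a fitted effect of over 45% in size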
# EXPERIMENTAL CONDITIONS: ERalpha-bla HEK293 viability, CellTiter-Glo luminescence, 18 h; series mostly up to 69.4 µM
Inconclusive results are not listed. The source made the active and inactive calls. Calls follow the shape of the full dose curve.
Write down the outcome that applies. Available outcomes: active, inactive

Check out these entries, answers already filled in.
>  <COMPOUND>
COc1ccc2cc([C@H](C)CO)ccc2c1

>  <CLASS ASSIGNMENT>
inactive

$$$$
>  <COMPOUND>
O=[n+]1ccn([O-])c2ccccc21

>  <CLASS ASSIGNMENT>
inactive

$$$$
>  <COMPOUND>
CN(C)CCOc1ccccc1Cc1ccccc1 (tested in a mixture with another compound)

>  <CLASS ASSIGNMENT>
inactive

$$$$
>  <COMPOUND>
CC1(C)N=C(N)N=C(N)N1c1ccc(Cl)cc1

>  <CLASS ASSIGNMENT>
active

$$$$
>  <COMPOUND>
CO/N=C(\C(=O)N[C@@H]1C(=O)N2C(C(=O)O)=C(CSc3nnnn3C)CS[C@H]12)c1csc(N)n1

>  <CLASS ASSIGNMENT>
inactive

$$$$
>  <COMPOUND>
CC[N+](C)(C)Cc1ccccc1Br

>  <CLASS ASSIGNMENT>
inactive

$$$$

Problem: Per the records of this test, what outcome belongs to COc1ccc(/C=C/C(=O)OCCC(C)C)cc1 ?
Result: inactive

Problem: Could you kindly confirm the outcome this assay logged for COC(=O)[C@H]1[C@H]2C[C@@H]3c4[nH]c5cc(OC)ccc5c4CCN3C[C@H]2C[C@@H](OC(=O)/C=C/c2cc(OC)c(OC)c(OC)c2)[C@@H]1OC ?
Result: inactive

Problem: Status in this test for CC(C)C(=O)OCC(=O)[C@@]12O[C@H](C3CCCCC3)O[C@@H]1C[C@H]1[C@@H]3CCC4=CC(=O)C=C[C@]4(C)[C@H]3[C@@H](O)C[C@@]12C ?
Result: inactive

* * *

# ASSAY METHOD TEXT: qHTS assay for small molecule disruptors of the mitochondrial membrane potential - cell viability (AID 720634);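 also: human HepG2 liver cancer cells; nearly all actives have a fitted effect of over 20% in size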
# EXPERIMENTAL CONDITIONS: HepG2 viability, ATP luminescence (CellTiter-Glo), 1 h; series mostly up to 83.2 µM
Inconclusive results are not listed. Active and inactive are the calls of the source. Calls follow the shape of the full dose curve.
Reply using exactly one outcome from active, inactive

>  <COMPOUND>
c1ccc2cc(C3=NCCN3)ccc2c1

>  <CLASS ASSIGNMENT>
inactive

$$$$
>  <COMPOUND>
CCSc1ccc2c(c1)N(CCCN1CCN(C)CC1)c1ccccc1S2

>  <CLASS ASSIGNMENT>
inactive

$$$$
>  <COMPOUND>
C#CCOc1ccc2c(C)cc(=O)oc2c1

>  <CLASS ASSIGNMENT>
inactive

$$$$
>  <COMPOUND>
CN(C(=O)CO)c1c(I)c(C(=O)NCC(O)CO)c(I)c(C(=O)NCC(O)CO)c1I (centres undefined)

>  <CLASS ASSIGNMENT>
inactive

$$$$
>  <COMPOUND>
C=CC1=C(C)C2=CC3=NC(=C(CC(=O)[O-])C4=NC(=C(C)C4=C([O-])[O-])C=c4[n-]c(c(C)c4CC)=CC1=N2)C(CCC(=O)[O-])C3C.[Cu+2].[Na+].[Na+].[Na+] (centres undefined)

>  <CLASS ASSIGNMENT>
inactive

$$$$

Problem: Outcome logged for OC[C@H]1O[C@@H](n2cnc3c2NC=NC[C@H]3O)C[C@@H]1O in this assay:
Result: inactive

Problem: # outcome recorded in this test, key = CO[C@H]1C[C@H](O[C@@H]2/C(C)=C/C[C@@H]3C[C@@H](C[C@]4(CC[C@H](C)[C@@H](C5CCCCC5)O4)O3)OC(=O)[C@@H]3C=C(C)/C(=N/O)[C@H]4OC/C(=C\C=C\[C@@H]2C)[C@]43O)O[C@@H](C)[C@@H]1O
Result: inactive

Problem: Hi, sorry to bother you, what did the test record for C=C1C(=C/C=C2\CCC[C@]3(C)[C@@H]([C@H](C)CCCC(C)(C)O)CC[C@@H]23)C[C@@H](O)C[C@@H]1O ?
Result: inactive

Problem: Assay outcome for CCC(=O)OCC(=O)[C@@]1(OC(=O)CC)[C@H](C)C[C@H]2[C@H]3[C@H]([C@@H](O)C[C@@]21C)[C@@]1(C)C=CC(=O)C=C1C[C@H]3Cl : what was it?
Result: inactive

Problem: Hello, I am checking results. What call was entered for COC(F)(F)C(Cl)Cl ?
Result: inactive

Problem: Tell me the assay call for [O]=[Bi][O][Bi]=[O] please.
Result: inactive

Problem: Each compound tested received a call. Report the one for O=C1NCCN1c1ncc([N+](=O)[O-])s1 .
Result: inactive

Problem: Could you check what this test reported for Clc1ccc(COC(Cn2ccnc2)c2ccc(Cl)cc2Cl)c(Cl)c1 (centres undefined) ?
Result: inactive

Problem: Which outcome was assigned to O=C(OC1C[C@@H]2CC3C[C@H](C1)N2CC3=O)c1c[nH]c2ccccc12 (some centres undefined) in this test?
Result: inactive

Problem: Answer briefly: the call reported for C#C[C@]1(OC(C)=O)CC[C@H]2[C@@H]3CCC4=CC(=O)CC[C@@H]4[C@H]3CC[C@@]21C in this assay.
Result: inactive
